Please provide measured IC50 for the entries that follow.
- Tgt: T1, cloned human somatostatin receptor 2 (human, UniProt P30874 1-369)
- T1 construct: whole, on cells; Tested as cell membrane preparations; also called SSTR-2; SSTR2
- Assay comment: inhibition of SRIF binding, cloned human SSTR-2; head says nM, values evidently molar
*1 amine or outer side, *2 acyl side, *3 side chain or, on linkers, in order; H or OH if unused. Bridges are numbered along the chain shown (N, C = ends). Where no end group is shown, it is not given here. [ ]: non-standard residue; d: D form. N(2-aminoethyl)Phe = O=C([C@H](Cc1ccccc1)N(CCN[*:3])[*:1])[*:2]; N(CH2CH2CO)Gly = O=C(CN(CCC(=O)[*:3])[*:1])[*:2]; 2Nal = N[C@@H](Cc1ccc2ccccc2c1)C(=O)O; Gly(S2) = not defined here; Phe(C3) = not defined here
Numbers only, in nM.

Some binders with recorded IC50:
{"Binder": "[dF]CFW[dW]KTF[Gly(S2)]-NH2 (disulfide 2-9; reading uncertain, Backbone to side chain cyclized nonapeptide) [PTR 3207]", "Reported result": 1}
{"Binder": "[N(2-aminoethyl)Phe]F[dW]KT[2Nal][N(CH2CH2CO)Gly] (lactam 1-7; not fully specified, Backbone cyclized heptapeptide) [PTR 3203]", "Reported result": 100}
{"Binder": "[Phe(C3)]CF[dW]KTC[Phe(N3)]-NH2 (lactam 1-8; disulfide 2-7; reading uncertain, Bicyclic analog) [PTR 3205]", "Reported result": 1}

Respectfully, I request IC50 for each entry included below.
1. CFW[dW]KTF[Gly(S2)]-NH2 (disulfide 1-8; reading uncertain, Backbone to side chain cyclized octapeptide) [PTR 3197]
2. [N(2-aminoethyl)Phe]Y[dW]KS[2Nal][N(CH2CH2CO)Gly] (lactam 1-7; not fully specified, Backbone cyclized heptapeptide) [PTR 3201]
3. XFWWKTFG (GABA at 1 (written X); (D)Trp at 4; Gly(C3) building unit at 8 bridged by an amide to the N terminus (GABA); C-terminal amide, Backbone-to-end cyclized octapeptide) [PTR 3173]

A:
1. 10
2. 100
3. 1
